Each item that follows carries a reported z-score.
Experiment: HepG2 liver cancer cell viability effects, profiling panel, resazurin fluorescence, 24 h, PK04 Diversity Set (AID 1172); further: test concentration not given here
Conditions: higher = more signal
ENDPOINT_NAME: z-score

* CCOC(=O)[C@H](CC(C)C)NC(=O)CCC1CC(OC(=O)NCc2ccc3c(c2)OCO3)CC2(CCCC(COC(=O)NCc3ccccc3)O2)O1 (stereo partly specified) | 1.32
* CC(CCN1CCCc2nc(C)c(C)cc21)=NOC[C@@H](O)COCc1ccco1 | 0.365
* COc1cccc([C@H]2Oc3ccc(OC)cc3C(=NO[C@@H](C)c3cc(-c4c(C)cc(C)cc4C)no3)[C@@H]2O)c1 | -0.406
* CCCNC(=O)OC[C@H]1O[C@H](CCON=C[C@@H](NS(=O)(=O)c2ccc(C)cc2)[C@H](C)C=CCC(=O)OC)C=C[C@@H]1Oc1ccc(OC)cc1 | -0.765
* C=CC[C@@H]1C=C[C@H](ON=C2C[C@@H](O)[C@@H](O)[C@@H]3[C@@H]4C(=O)N(CC)C(=O)[C@@H]4CC[C@@H]23)[C@@H](CO)O1 | -1.05
* CO[C@@H]1C=CCC(=O)N[C@@H](C)C(=O)OC[C@@H](NS(=O)(=O)c2ccc(C)cc2)[C@H](C)C=CCC(=O)OC[C@H]1C | -0.0689
* Cc1ccc2[nH]c3nc(CCCn4ccnc4-c4ccccc4)nnc3c2c1 | -0.256
* COC(=O)[C@@H]1CC[C@H](C)[C@@H](c2ccc(Br)cc2)N1C[C@H](O)CN=[N+]=[N-] | -0.413
* C[C@H]1CC[C@@H](C(=O)O)N[C@@H]1c1ccc(C#Cc2ccccc2)cc1 | -0.214
* C[C@@H]1CC[C@H]2C(=O)OC(Cc3ccccc3)CN2[C@H]1c1ccc(Br)cc1 (stereo partly specified) | 0.352
* C=CC[C@@H]1C=C[C@H](ON=C[C@@H](NS(=O)(=O)c2ccc(C)cc2)[C@H](C)C=CCC(=O)OC)[C@@H](CO)O1 | -0.71
* COC(=O)[C@H](C)NC(=O)CCC1CC(OC(=O)NCc2cccc3ccccc23)CC2(CCCC(COC(=O)NCc3ccccc3)O2)O1 (stereo partly specified) | 2.27
* COC(=O)[C@@H]1CC[C@H](C)[C@@H](c2ccc(C)cc2)N1C(=O)c1ccc(C=NOC[C@H]2O[C@H](c3ccccc3)C=C[C@@H]2Oc2ccc(OC)cc2)cc1 | 0.158
* O=C1C[C@H](c2ccccc2)[C@H](c2ccc(Br)cc2)O1 | -0.598
* CCOC(=O)[C@H](Cc1ccccc1)NC(=O)CCC1CC(OC(=O)NCc2cccc3ccccc23)CC2(CCCC(COC(=O)NCCc3ccc(Cl)cc3)O2)O1 (stereo partly specified) | 0.723
* CC(C)=NOC(C)CN1CCCCc2nc(C)c(C)cc21 (stereo unspecified) | -0.724

----------
Assay: small-molecule binders of probe aLefty1, primary screen, biochemical, small-molecule microarray, 635/667 nm fluorescence (AID 1153);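 further: score merges spot fluorescence with signal-to-noise ratio from the scanned slide images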
Conditions: higher = more signal
ENDPOINT_NAME: composite z-score

- CC(=O)OC[C@H]1O[C@@H](ON=C(C)CCN2CCCCc3nc(C)c(C)cc32)[C@H](OC(C)=O)[C@@H](OC(C)=O)[C@@H]1OC(C)=O: -0.0601
- CC(C)(C)N1C(=O)[C@H]2[C@H]3[C@H](O)[C@H](O)CC(=NNC(=O)OCc4ccccc4)[C@@H]3CC[C@H]2C1=O: -0.153
- COc1ccc2c(c1)O[C@@H](c1cccc(C(F)(F)F)c1)[C@H](O)C2=O: 0.0328
- COC(=O)[C@H](Cc1ccccc1)NC(=O)[C@@H](C)CO: 0.174
- COC(=O)CC=C[C@@H](C)[C@@H](C=NOC[C@@H](C)[C@H](OCc1ccccc1)C(C)C)OC: -0.29
- O=C1C=C[C@@H](O)[C@@H]2[C@@H]3C(=O)N(Cc4ccc5c(c4)OCO5)C(=O)[C@@H]3CC[C@@H]12: -0.0061
- CC(=O)OC[C@H]1O[C@H](CCON=C(C)CCN2CCCc3nc(C)c(C)cc32)C=C[C@@H]1OC(C)=O: 0.0861
- COCOc1ccc(Br)cc1C(=O)C=Cc1ccc2c(c1)OCO2: -0.103
- O=C1[C@H]2CCn3c(=O)n(Cc4cc5c(cc4Cl)OCO5)c(=O)n3[C@H]2[C@H](O)[C@@H]2O[C@H]12: -0.196
- CCOC(=O)[C@H](Cc1ccccc1)NC(=O)CCC1CC(OC(=O)NCc2ccc3c(c2)OCO3)CC2(CCCC(COC(=O)NCCOc3ccccc3)O2)O1 (stereo partly specified): -0.239
- CC(C)C(=O)N[C@H]1CCCN1C(=O)C=Cc1ccccc1: 0.271
- C[C@@H]1CC[C@H]2C(=O)OC(Cc3ccccc3)CN2[C@H]1c1ccc(Br)cc1 (stereo partly specified): -0.0111
- C=CC[C@@H]1C=C[C@H](Oc2ccc(C)cc2)[C@@H](COC(=O)NCc2cccc3ccccc23)O1: -0.0501
- CCOC(=O)[C@H](Cc1ccccc1)NC(=O)CCC1CC(OC(=O)NCc2cccc3ccccc23)CC2(CCCC(COC(=O)NCC3CCCCC3)O2)O1 (stereo partly specified): -0.0662
- CON=C(C)CCN1CCCc2nc(C)c(C)cc21: -0.0601
- CCOC(=O)[C@H](Cc1ccccc1)NC(=O)CCC1CC(OC(=O)NCc2cccc3ccccc23)CC2(CCCC(COC(=O)NCc3ccc4c(c3)OCO4)O2)O1 (stereo partly specified): 0.0686
- COc1ccc(COC(=O)NN=C2C[C@@H](O)[C@@H](O)[C@@H]3[C@@H]4C(=O)N(C[C@@H]5CCCO5)C(=O)[C@@H]4CC[C@H]23)cc1: 0.544
- CC(=O)OC[C@H]1O[C@H](C#CCC2CCCCC2)C=C[C@@H]1OC(C)=O: -0.19
- O=C1[C@H]2[C@H]3[C@H](O)[C@H](O)CC(=NO[C@@H]4O[C@H](CO)[C@@H](O)[C@H](O)[C@H]4O)[C@H]3CC[C@H]2C(=O)N1c1ccc(F)cc1F: 0.0865
- O=C1[C@H]2[C@H]3[C@H](O)[C@H](O)CC(=NOC[C@@H](O)COCc4ccco4)[C@@H]3CC[C@H]2C(=O)N1Cc1ccccc1: 0.185
- CCOC(=O)NN=C1C[C@@H](O)[C@@H](O)[C@@H]2[C@@H]3C(=O)N(CC)C(=O)[C@@H]3CC[C@H]12: -0.286
- C[C@@H](c1ccccc1)N1C(=O)[C@H]2[C@H]3[C@H](O)[C@H](O)CC(=NOC[C@@H](O)COCc4ccco4)[C@H]3CC[C@H]2C1=O: -0.201
- O=C(NN=C1C[C@@H](O)[C@@H](O)[C@@H]2[C@@H]3C(=O)N(Cc4ccccc4)C(=O)[C@@H]3CC[C@H]12)OCc1ccccc1: -0.279
- COc1cccc([C@H](O)Cn2cc(-c3ccc(CON=C(C)C)cc3)nn2)c1: -0.103
- C#CCCCON=C1C[C@@H](O)[C@@H](O)[C@@H]2[C@@H]3C(=O)N(C4CCCCC4)C(=O)[C@@H]3CC[C@@H]12: -0.276
- O=C1C[C@H](c2ccccc2)[C@H](c2ccc(Br)cc2)O1: -0.464
- CC(=O)OC[C@H]1O[C@@H](ON=C(C)CCC(=O)OC[C@H]2O[C@H](C#Cc3ccccc3)C=C[C@@H]2Oc2ccc(C)cc2)[C@H](OC(C)=O)[C@@H](OC(C)=O)[C@@H]1OC(C)=O: -0.265
- CC(C)[C@@H](OCc1ccccc1)[C@H](C)C=NO[C@H](C)c1cn([C@@H]2COC[C@H]2O)nn1: -0.111
- COc1ccc(COC(=O)NN=C2C[C@@H](O)[C@@H](O)[C@@H]3[C@@H]4C(=O)N([C@@H](C)c5ccccc5)C(=O)[C@@H]4CC[C@@H]23)cc1: -0.102
- C[C@H]1C=CCC(=O)OC[C@H](C)C(=O)N2CCC[C@H]2C(=O)OC1: -0.199
- CCOC(=O)[C@H](Cc1ccccc1)NC(=O)CCC1CC(OC(=O)NCc2cccc3ccccc23)CC2(CCCC(COC(=O)NCCc3ccccc3OC)O2)O1 (stereo partly specified): -0.101

Numbers sourced from PubChem BioAssay.
